A collection of molecules and their measured GI50
# Tested on: SN12C
# protocol details: NCI tumour cell line growth inhibition, 48 h
Active and inactive are the calls of the source. No stated cut-off is given here; in the data, active = GI50 up to about 1.1 µM and inactive = higher.
observation type: GI50

- molecule: "Cc1cccc(NC(N)=S)c1"
  observed result: "> 100 µM (inactive)"
- molecule: "COc1ccc(/N=N/c2ccc3oc(=O)c(C(=O)Nc4ccc(Cl)cc4)cc3c2)cc1"
  observed result: "> 10 µM (inactive)"
- molecule: "CC(=O)C1=C(C)NC2C=CC=CN12 (centres undefined)"
  observed result: "> 100 µM (inactive)"
- molecule: "O=C1C=C(Nc2ccc(Br)cc2)c2ccccc2/C1=N/O"
  observed result: "10.6 µM (inactive)"
- molecule: "CS(=O)(=O)c1c(N)c2nc(Cl)cn2c2nc3ccccc3nc12"
  observed result: "> 100 µM (inactive)"
- molecule: "CC(=O)Nc1ccc(S(=O)(=O)Nc2cnc3ccccc3n2)cc1"
  observed result: "> 100 µM (inactive)"
- molecule: "Cc1ccc(O)c(C(c2cccc(C(c3cc(C)ccc3O)c3cc(C)ccc3O)c2)c2cc(C)ccc2O)c1"
  observed result: "1.83 µM (inactive)"
- molecule: "Nc1sccc1S(=O)(=O)c1ccsc1N"
  observed result: "> 100 µM (inactive)"
- molecule: "COc1cc2c(cc1OC)C13CCN4CC5=CCOC(CC(=O)O)C(C5CC41)C3N2 (centres undefined)"
  observed result: "> 100 µM (inactive)"
- molecule: "CC[N+]1(C)CCC(O)(c2ccccc2)C(C(=O)c2ccccc2)C1 (centres undefined)"
  observed result: "11.6 µM (inactive)"
- molecule: "C=CC(OC(=O)C(C)C)c1ccc(OC(=O)C(C)C)cc1 (centres undefined)"
  observed result: "14 µM (inactive)"
- molecule: "COc1cc(S(=O)(=O)Nc2ccc(-c3csc(/N=C\\c4cccc(Oc5ccccc5)c4)n3)cc2)ccc1Cl"
  observed result: "25.1 µM (inactive)"
- molecule: "COc1ccc(C(c2c(O)c3ccccc3n(-c3ccccc3)c2=O)c2c(O)c3ccccc3n(-c3ccccc3)c2=O)cc1"
  observed result: "> 100 µM (inactive)"
- molecule: "CN(C)/N=C(/CC(O)(C(F)(F)F)C(F)(F)F)c1ccc([N+](=O)[O-])cc1"
  observed result: "> 100 µM (inactive)"
